Data origin: patent US20250154169A1

Below: a set of entries, each annotated with reported AC50.
Test system: HTT mRNA
Assay: Splicing RT-qPCR assay, HTT canonical (CJ) and alternative (AJ) junction mRNA
Assay type: cell-based, human
Conditions: Homo sapiens, A673 or K562 cells, 24 hours compound treatment, read-out: HTT AJ (AC50, increase in alternative junction mRNA)
Method: Compounds described herein were used to modulate RNA transcript abundance in cells. The expression of a target mRNA was measured by detecting the formation of an exon-exon junction in the canonical transcript (CJ). A compound mediated exon-inclusion event was detected by observing an increase in formation of a new junction with an alternative exon (AJ). Real-time qPCR assays were used to detect these splicing switches and interrogate the potency of various compounds towards different target genes. […]

Below, each entry is followed by its recorded AC50 result.
Cc1cn2cc(NC(=O)c3ccc(N4CCC(N)(CF)CC4)c4cn(C)nc34)cc(F)c2n1 [Compound 397]; 1000 to 10000 nM
COc1c(NC(=O)c2ccc(N3CCNCC3)c3cn(C)nc23)cn2cc(C)nc2c1F [Compound 343]; < 100 nM
Cc1cn2nc(NC(=O)c3ccc(N4CCNCC4)c4cn(C)nc34)nc2c(C)n1 [Compound 253]; > 10000 nM

// below: AC50 requested for another molecule
Input line: Complete the entry with AC50 for Cc1nc2c(F)cc(NC(=O)c3ccc(N4CCNCC4)c4cn(C)nc34)cn2c1C [Compound 458]
Output line: 100 to 1000 nM
